Target: Adenosylhomocysteinase (Plasmodium falciparum 3D7)
Sequence (P50250 whole entry): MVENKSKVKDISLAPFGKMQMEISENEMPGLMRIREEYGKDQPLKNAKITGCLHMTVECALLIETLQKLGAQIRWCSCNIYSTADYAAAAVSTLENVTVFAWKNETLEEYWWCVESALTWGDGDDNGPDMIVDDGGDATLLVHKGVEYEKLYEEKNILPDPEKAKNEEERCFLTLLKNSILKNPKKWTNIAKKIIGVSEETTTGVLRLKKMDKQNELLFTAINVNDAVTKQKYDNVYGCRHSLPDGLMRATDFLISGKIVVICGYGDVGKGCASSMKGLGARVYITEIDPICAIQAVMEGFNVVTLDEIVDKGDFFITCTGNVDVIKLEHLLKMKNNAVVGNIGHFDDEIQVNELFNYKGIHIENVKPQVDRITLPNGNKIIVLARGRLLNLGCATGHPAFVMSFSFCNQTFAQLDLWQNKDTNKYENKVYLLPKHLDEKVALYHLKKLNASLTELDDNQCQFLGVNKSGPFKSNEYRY
Assay: Inhibitory activity against Plasmodium falciparum S-adenosyl-L-homocysteine hydrolase
measurementKind: pIC50
Hey, just a heads up that pIC50 is the negative log base 10 of the concentration in molar.

Nc1ncnc2c1ncn2[C@@H]1C[C@H](O)[C@@H](O)[C@H]1O [NORARISTEROMYCIN]
5.51

As a next step, examine the compound that follows.
query: For the compound Nc1nc(F)nc2c1ncn2[C@@H]1C[C@H](O)[C@@H](O)[C@H]1O , give its reported pIC50.
result: 4.89

* * *

Molecular target: UniProt:P23526
Sequence (P23526 whole entry): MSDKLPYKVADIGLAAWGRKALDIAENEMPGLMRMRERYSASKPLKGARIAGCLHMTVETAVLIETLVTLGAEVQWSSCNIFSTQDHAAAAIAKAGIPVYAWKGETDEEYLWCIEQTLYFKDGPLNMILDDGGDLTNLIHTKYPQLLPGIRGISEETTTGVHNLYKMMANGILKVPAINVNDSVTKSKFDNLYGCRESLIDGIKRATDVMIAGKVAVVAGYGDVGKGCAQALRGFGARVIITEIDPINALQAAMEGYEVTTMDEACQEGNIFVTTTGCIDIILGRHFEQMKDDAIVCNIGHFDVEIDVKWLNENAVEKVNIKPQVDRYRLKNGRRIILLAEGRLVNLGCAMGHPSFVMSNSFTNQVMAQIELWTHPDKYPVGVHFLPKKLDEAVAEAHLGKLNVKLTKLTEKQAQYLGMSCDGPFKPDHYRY
Parameter Ki: see the listing below.
Number only, in µM; omit the unit.

Nc1nc(F)nc2c1ncn2[C@@H]1C[C@H](O)[C@@H](O)[C@H]1O
7.9

query: Specify Ki for Nc1ncnc2c1ncn2[C@@H]1C[C@H](O)[C@@H](O)[C@H]1O , system UniProt:P23526.
result: 0.16
